Values compiled from patent US20210246218A1.

Target: T1, CD137 protein (UniProt Q07011 24-186, limits assumed)
T1 construct: also called CD137 antigen; CD137 receptor
T1 sequence (Q07011 24-186 limits assumed): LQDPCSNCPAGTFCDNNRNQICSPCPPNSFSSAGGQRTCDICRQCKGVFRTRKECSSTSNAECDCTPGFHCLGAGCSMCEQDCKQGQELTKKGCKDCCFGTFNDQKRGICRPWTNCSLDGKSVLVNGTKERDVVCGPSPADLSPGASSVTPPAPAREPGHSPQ
Experiment: BLI (Octet Red 96), antibody on anti-human Fc sensors, CD137 protein in solution, 1:1 model
Reported metric: Kd (nM)
Numeric answer only, unit nM assumed.

Consider humanized anti-CD137 antibody clone 3718 (IgG4 S228P/kappa) (antibody, V domains shown) VH: QVQLVQSGAEVVKPGASVKLSCKASGYTFAGFEMHWIRQAPGQGLGWIGAIDPKTGGTDYNQKFKDRATLTADTSISTAYMELSRLRSDDTAVYYCTRDLGYFDVWGQGTLVTVSS VL: DIQMTQSPSSLSASVGDRVTITCRASQDIRSNLNWYQQKPGGAVKLLIYYTSRLHSGVPSRFSGSGSGTDYTLTISSLQPEDFATYFCQQSEKLPRTFGGGTKVEIRR . Its measured Kd is 8.3

Consider humanized anti-CD137 antibody clone 3712 (IgG4 S228P/kappa) (antibody, V domains shown) VH: QVQLVQSGAEVKKPGASVKVSCKASGYTFAGFEMHWVRQAPGQGLEWMGAIDPKTGGTDYNQKFKDRVTMTRDTSISTAYMELSRLRSDDTAVYYCARDLGYFDVWGQGTLVTVSS VL: DIQMTQSPSSLSASVGDRVTITCRASQDIRSNLNWYQQKPGGAVKLLIYYTSRLHSGVPSRFSGSGSGTDYTLTISSLQPEDFATYFCQQSEKLPRTFGGGTKVEIRR . Its measured Kd is 10

Consider humanized anti-CD137 antibody clone 3716 (IgG4 S228P/kappa) (antibody, V domains shown) VH: QVQLVQSGAEVVKPGASVKVSCKASGYTFAGFEMHWVRQAPGQGLGWMGAIDPKTGGTDYNQKFKDRVTMTADTSISTAYMELSRLRSDDTAVYYCTRDLGYFDVWGQGTLVTVSS VL: DIQMTQSPSSLSASVGDRVTITCRASQDIRSNLNWYQQKPGGAVKLLIYYTSRLHSGVPSRFSGSGSGTDYTLTISSLQPEDFATYFCQQSEKLPRTFGGGTKLEIRR . Its measured Kd is 7

Consider humanized anti-CD137 antibody clone 3715 (IgG4 S228P/kappa) (antibody, V domains shown) VH: QVQLVQSGAEVVKPGASVKVSCKASGYTFAGFEMHWVRQAPGQGLGWMGAIDPKTGGTDYNQKFKDRVTMTADTSISTAYMELSRLRSDDTAVYYCTRDLGYFDVWGQGTLVTVSS VL: DIQMTQSPSSLSASVGDRVTITCRASQDIRSNLNWYQQKPGGAVKLLIYYTSRLHSGVPSRFSGSGSGTDYTLTISSLQPEDFATYFCQQSEKLPRTFGGGTKVEIRR . Its measured Kd is 5.9
